- experimental.details: Mouse PK, oral 1 mg/kg
- Assay type: in vivo
- test.context: female, FVB, serum, mice, oral (gavage) 1 mg/kg
parameter.measured: Cmax (ng/mL)
Value expressed in ng/mL; do not type the unit.

Request: State the recorded Cmax for this entry: CNC(=O)c1ccc(N2CCCN(c3ccnc4sc(C(N)=O)c(N)c34)CC2)cc1 [15v]
Result: 7.2

---

- tested.system: CSNK1A1 (Homo sapiens)
- Sequence (P48729 whole entry): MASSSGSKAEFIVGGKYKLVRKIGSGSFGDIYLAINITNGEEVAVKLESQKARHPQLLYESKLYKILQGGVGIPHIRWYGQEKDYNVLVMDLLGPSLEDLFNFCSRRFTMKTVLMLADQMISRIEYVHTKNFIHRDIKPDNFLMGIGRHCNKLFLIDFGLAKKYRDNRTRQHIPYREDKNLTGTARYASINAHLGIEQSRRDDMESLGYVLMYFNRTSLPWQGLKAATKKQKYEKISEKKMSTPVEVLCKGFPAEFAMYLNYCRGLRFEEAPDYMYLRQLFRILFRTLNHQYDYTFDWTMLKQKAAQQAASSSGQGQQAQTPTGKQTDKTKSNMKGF
parameter.measured: pKd
Remember, pKd is on a log scale: it is -log10 of the molar concentration.

Request: # get_value(readout='pKd', item= CN(C)C(=O)c1ccc(N2CCCN(c3ccnc4sc(C(N)=O)c(N)c34)CC2)cc1 [15u] )
Result: 6.64

---

- experimental.details: in vivo
- test.context: female, CD-1, mouse, serum, po, 16 mg/kg
parameter.measured: AUC(0-t)

Request: What value of AUC(0-t) has been reported for the following compound? Cc1cc(N2CCCN(c3ccc(C(=O)N(C)C)cc3)CC2)c2c(N)c(C(N)=O)sc2n1
Result: 2200 ng·h/mL

Request: What value of AUC(0-t) has been reported for the following compound? [2H]C([2H])([2H])N(C(=O)Cc1ccc(N2CCCN(c3ccnc4sc(C(N)=O)c(N)c34)CC2)cc1)C([2H])([2H])[2H]
Result: 770 ng·h/mL

Request: What measured AUC(0-t) goes with CN(C)C(=O)Cc1ccc(N2CCCN(c3ccnc4sc(C(N)=O)c(N)c34)CC2)cc1 [15w] ?
Result: 400 ng·h/mL

---

Kindly state AUC for each of the entries shown.
- experimental.details: Mouse PK, intravenous
- Format: in vivo
- test.context: mouse, serum, iv; female FVB mice, i.v. 0.5 mg/kg, mixture
Enter your answer as a number in ng·h/mL; do not include the unit.

Request: Please report the recorded AUC for CN(C)C(=O)c1ccc(N2CCCN(c3ccnc4sc(C(N)=O)c(N)c34)CC2)cc1 [15u] .
Result: 92.1

Request: Recorded AUC for CNC(=O)c1ccc(N2CCCN(c3ccnc4sc(C(N)=O)c(N)c34)CC2)cc1 [15v] , please?
Result: 61.2

Request: Which AUC reading was recorded for the compound NC(=O)c1sc2nccc(N3CCCN(c4ccccc4)CC3)c2c1N [15k] ?
Result: 40.8

---

- experimental.details: Mouse PK, intravenous
- Assay type: in vivo
- test.context: mouse, serum, iv; female FVB mice, i.v. 0.5 mg/kg, mixture
Could you please report measured half-life for the items listed next?

Request: Entry under review: CN(C)C(=O)c1ccc(N2CCCN(c3ccnc4sc(C(N)=O)c(N)c34)CC2)cc1 [15u] . Reported half-life?
Result: 10.2 min

Request: Fill blank: measured half-life of the compound CNC(=O)c1ccc(N2CCCN(c3ccnc4sc(C(N)=O)c(N)c34)CC2)cc1 [15v] is ____.
Result: 9.6 min

Request: Any idea what its half-life is? The compound is NC(=O)c1sc2nccc(N3CCCN(c4ccccc4)CC3)c2c1N [15k]
Result: 9 min

---

- tested.system: GSK3A (Homo sapiens)
- Sequence (P49840 whole entry): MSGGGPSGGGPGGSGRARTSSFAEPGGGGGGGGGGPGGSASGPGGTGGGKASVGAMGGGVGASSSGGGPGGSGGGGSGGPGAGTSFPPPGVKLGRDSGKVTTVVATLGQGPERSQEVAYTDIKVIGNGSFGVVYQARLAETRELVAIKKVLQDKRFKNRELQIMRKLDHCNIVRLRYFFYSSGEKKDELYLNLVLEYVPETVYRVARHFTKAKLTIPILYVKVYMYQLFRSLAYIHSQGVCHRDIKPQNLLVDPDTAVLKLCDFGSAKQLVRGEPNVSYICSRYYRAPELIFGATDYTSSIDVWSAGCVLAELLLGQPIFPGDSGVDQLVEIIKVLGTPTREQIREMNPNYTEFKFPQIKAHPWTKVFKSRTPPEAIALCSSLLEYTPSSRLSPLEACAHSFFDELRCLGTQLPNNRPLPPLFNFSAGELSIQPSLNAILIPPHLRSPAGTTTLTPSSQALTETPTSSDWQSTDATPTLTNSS
parameter.measured: pKd
Schema: pKd number; meaning minus log10 of the concentration expressed in molar units.

Request: GET /values?readout=pKd&item= CN(C)C(=O)c1ccc(N2CCCN(c3ccnc4sc(C(N)=O)c(N)c34)CC2)cc1 [15u]
Result: 5.25
